// data source = patent US20220033484A1

# maps each entry to its kon
target: T1, cTnI quality control product recombinant protein (human, UniProt P19429 2-210, limits assumed)
T1 construct: treated as the same molecule; also called cTnI antigen; cardiac troponin I
T1 sequence (P19429 2-210 limits assumed): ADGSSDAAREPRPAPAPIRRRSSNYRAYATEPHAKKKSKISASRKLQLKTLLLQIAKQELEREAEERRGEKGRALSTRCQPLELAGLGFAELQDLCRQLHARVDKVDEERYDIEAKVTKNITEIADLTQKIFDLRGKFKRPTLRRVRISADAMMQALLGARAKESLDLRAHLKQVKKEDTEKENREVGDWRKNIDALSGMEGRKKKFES
assay_notes: AMC sensor, antibody immobilised, cTnI in solution
readout_label: kon (M⁻¹ s⁻¹)

binder="Mutation 1-20 (antibody, V domains shown, Built as m8) VH: EVQLQQSGPELVKPGASVKMSCKASGYTFTIYVIHWVKQKPGQGLEWIGYIYPYIDGTKYNEKFKGKATLTVDKSSSTAFMELSSLTSEDSAVYYCARSGYGGYGLAWLAYWGQGTLVTVSA VL: QAVVIQESALTTSPGETVTLTCRSSTGAATTSQYANWVQEKPDHLFTGLIGGSNNRAPGVPARFSGSLIGDKAALTITGAQTEDEAIYFCALVYSNNWVFGGGTKLTVLG" numeric_value=70000
binder="Mutation 1-55 (antibody, V domains shown, Built as m8) VH: EVQLQQSGPELVKPGASVKMSCKASGYTFTIYVVHWVKQKPGQGLEWIGYIYPYIDGTKYNEKFKGKATLTVDKSSSTAFMELSSLTSEDSAVYYCARSGYGGYGLAWLAYWGQGTLVTVSA VL: QAVVIQESALTTSPGETVTLTCRSSTGAVTTSQYANWVQEKPDHLFTGLIGGSQNRAPGVPARFSGSLIGDKAALTITGAQTEDEAIYFCALVYSNNWVFGGGTKLTVLG" numeric_value=55400
binder="Mutation 1-48 (antibody, V domains shown, Built as m8) VH: EVQLQQSGPELVKPGASVKMSCKASGYTFTIYVVHWVKQKPGQGLEWIGYIYPYIDGTKYNEKFKGKATLTVDKSSSTAFMELSSLTSEDSAVYYCARSGYGQYGLAWLAYWGQGTLVTVSA VL: QAVVIQESALTTSPGETVTLTCRSSTGAATTSNYANWVQEKPDHLFTGLIGGSNNRAPGVPARFSGSLIGDKAALTITGAQTEDEAIYFCALVYSNQWVFGGGTKLTVLG" numeric_value=78200
binder="Mutation 1-6 (antibody, V domains shown, Built as m8) VH: EVQLQQSGPELVKPGASVKMSCKASGYTFTIYVVHWVKQKPGQGLEWIGYIQPYLDGTKYNEKFKGKATLTVDKSSSTAFMELSSLTSEDSAVYYCARSGYGQYGLAWLAYWGQGTLVTVSA VL: QAVVIQESALTTSPGETVTLTCRSSTGAVTTSQYANWVQEKPDHLFTGLIGGSNNRAPGVPARFSGSLIGDKAALTITGAQTEDEAIYFCALVYSNNWVFGGGTKLTVLG" numeric_value=76600
binder="Mutation 1-50 (antibody, V domains shown) VH: EVQLQQSGPELVKPGASVKMSCKASGYTFTIYVIHWVKQKPGQGLEWIGYIYPYIDGTKYNEKFKGKATLTVDKSSSTAFMELSSLTSEDSAVYYCARSGYGGYGLAWLAYWGQGTLVTVSA VL: QAVVIQESALTTSPGETVTLTCRSSTGAATTSQYANWVQEKPDHLFTGLIGGSQNRAPGVPARFSGSLIGDKAALTITGAQTEDEAIYFCALVYSNHWVFGGGTKLTVLG" numeric_value=50500
